Reported pIC50 values for the following molecules.
# Tested on: TT cells
# run.description: RET kinase cell-based proliferation assay
# Set-up: species or system human
# reported.conditions: 192 h; human RET kinase cell-based proliferation assay, TT cells, eight days (Table 4); read-out: RET IC50
pIC50: −log10 of the molar value.

Examples from the recorded data:
• CCOc1cc(-c2ccc(CC(=O)Nc3cc(OCCN4CCOCC4)cc(C(F)(F)F)c3)c(F)c2)c[nH]c1=O [Example 39] = 6.30 to 7.00
• CCOc1cc(=O)[nH]cc1-c1ccc(CC(=O)Nc2cnc(C(C)(C)CO)c(C(F)(F)F)c2)c(F)c1 [Example 31] = > 7.00
• CCOc1cc(-c2ccc(CC(=O)Nc3cc(OCCN(C)C)cc(C(F)(F)F)c3)c(F)c2)c[nH]c1=O [Example 46] = > 7.00
• CCOc1cc(-c2ccc(CC(=O)Nc3ccc(CC(F)(F)CO)c(C(F)(F)F)c3)c(F)c2)c[nH]c1=O [Example 43] = > 7.00
• CCOc1cc(=O)[nH]cc1-c1ccc(CC(=O)Nc2ccc(CC(C)(C)CO)c(C(F)(F)F)c2)cc1F [Example 32] = > 7.00

Can you share its pIC50? I mean this molecule: CCOc1cc(-c2ccc(CC(=O)Nc3cc(C(C)(C)C(F)(F)F)no3)c(F)c2)c[nH]c1=O [Example 28] > 7.00

###

# target.or.test.system: Human RET kinase cytoplasmic domain (Homo sapiens (Human))
# Sequence (P07949 658-1114): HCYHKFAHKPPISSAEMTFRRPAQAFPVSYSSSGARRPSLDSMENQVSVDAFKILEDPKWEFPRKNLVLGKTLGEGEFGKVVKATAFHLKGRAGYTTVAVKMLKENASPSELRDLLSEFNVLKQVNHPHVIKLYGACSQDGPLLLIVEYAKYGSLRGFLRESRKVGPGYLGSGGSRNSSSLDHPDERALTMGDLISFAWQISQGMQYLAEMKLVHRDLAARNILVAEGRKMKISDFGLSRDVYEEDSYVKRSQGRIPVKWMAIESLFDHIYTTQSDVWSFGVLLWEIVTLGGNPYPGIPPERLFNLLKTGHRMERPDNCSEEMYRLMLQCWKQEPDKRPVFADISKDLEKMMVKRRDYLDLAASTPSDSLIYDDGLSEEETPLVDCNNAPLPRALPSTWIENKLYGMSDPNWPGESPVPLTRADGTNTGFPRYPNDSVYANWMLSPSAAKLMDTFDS
Structures can show the parent of a compound that is named as a salt.
assay.endpoint: IC50

Can you share its IC50? I mean this compound: CCOc1cc(-c2ccc(CC(=O)Nc3cc(C(C)(C)C(F)(F)F)nn3C)c(F)c2)c[nH]c1=O [Example 41, hydrochloride] < 100 nM

Can you share its IC50? I mean this compound: CCOc1cc(-c2ccc(CC(=O)Nc3cc(-c4cnn(C)c4)cc(C(F)(F)F)c3)c(F)c2)c[nH]c1=O [Example 45, hydrochloride] < 100 nM

Can you share its IC50? I mean this compound: CCOc1cc(-c2ccc(CC(=O)Nc3cc(F)ccc3F)c(F)c2)c[nH]c1=O 500 to 10000 nM

Can you share its IC50? I mean this compound: CCOc1cc(=O)[nH]cc1-c1ccc(CC(=O)Nc2cnc(C(C)(C)CO)c(C(F)(F)F)c2)c(F)c1 < 100 nM

Can you share its IC50? I mean this compound: CCOc1cc(-c2ccc(CC(=O)Nc3ccc(CN4CCN(CC)CC4)c(C(F)(F)F)c3)c(F)c2)c[nH]c1=O [Example 21, dihydrochloride] < 100 nM

Can you share its IC50? I mean this compound: CCOc1cc(-c2ccc(CC(=O)Nc3cc(OCCN4CCOCC4)cc(C(F)(F)F)c3)c(F)c2)c[nH]c1=O < 100 nM

Can you share its IC50? I mean this compound: CCOc1cc(-c2ccc(CC(=O)Nc3cc(-n4ccc(C)n4)cc(C(F)(F)F)c3)c(F)c2)c[nH]c1=O [Example 35, hydrochloride] < 100 nM

Can you share its IC50? I mean this compound: CCOc1cc(-c2ccc(CC(=O)Nc3cc(C(F)(F)F)c(F)cc3F)c(F)c2)c[nH]c1=O < 100 nM

Can you share its IC50? I mean this compound: CCOc1cc(-c2ccc(CC(=O)Nc3cc(C(C)(C)C(F)(F)F)n[nH]3)c(F)c2)c[nH]c1=O [Example 42, hydrochloride] < 100 nM

Can you share its IC50? I mean this compound: CCOc1cc(=O)[nH]cc1-c1ccc(CC(=O)Nc2ccc(C#N)c(C(F)(F)F)c2)cc1F < 100 nM

Can you share its IC50? I mean this compound: CCOc1ncc(NC(=O)Cc2ccc(-c3c[nH]c(=O)c(OCC)c3)cc2F)cc1C(F)(F)F [Example 2, hydrochloride] < 100 nM

Can you share its IC50? I mean this compound: CCOc1cc(-c2ccc(CC(=O)Nc3ccc(CN(C)C)c(C(F)(F)F)c3)c(F)c2)c[nH]c1=O [Example 17, hydrochloride] < 100 nM

Can you share its IC50? I mean this compound: CCOc1cc(-c2ccc(CC(=O)Nc3ccc(Cl)c(C(F)(F)F)c3)c(F)c2)c[nH]c1=O < 100 nM

Can you share its IC50? I mean this compound: CCOc1cc(=O)[nH]cc1-c1ccc(CC(=O)Nc2ccc(C(C)(C)C(F)(F)F)nc2)c(F)c1 [Example 37, hydrochloride] < 100 nM
